# tested_system: CLC-0 E166Q mutant (Torpedo marmorata, UniProt P21564, C212S/E166Q)
# Format: cell-based
# condition: read-out: Apparent affinity (K1/2); −60 mV
Measured IC50 of individual entries
Entry rule: numbers only, all in mM.

1. O=C(O)COc1ccc(Cl)cc1 [CPA, p-chlorophenoxy acetate]: 19.7

We next turn to a different compound, shown below.
# IC50 of CCCCCCCC(=O)O [octanoate] = 11.4

----------
# tested_system: CLC-0 E166C/E127Q/K519E mutant (Torpedo marmorata, UniProt P21564, C212S/E127Q/E166C/K519E)
# Sequence (P21564 1-805 E127Q/E166C/C212S/K519E): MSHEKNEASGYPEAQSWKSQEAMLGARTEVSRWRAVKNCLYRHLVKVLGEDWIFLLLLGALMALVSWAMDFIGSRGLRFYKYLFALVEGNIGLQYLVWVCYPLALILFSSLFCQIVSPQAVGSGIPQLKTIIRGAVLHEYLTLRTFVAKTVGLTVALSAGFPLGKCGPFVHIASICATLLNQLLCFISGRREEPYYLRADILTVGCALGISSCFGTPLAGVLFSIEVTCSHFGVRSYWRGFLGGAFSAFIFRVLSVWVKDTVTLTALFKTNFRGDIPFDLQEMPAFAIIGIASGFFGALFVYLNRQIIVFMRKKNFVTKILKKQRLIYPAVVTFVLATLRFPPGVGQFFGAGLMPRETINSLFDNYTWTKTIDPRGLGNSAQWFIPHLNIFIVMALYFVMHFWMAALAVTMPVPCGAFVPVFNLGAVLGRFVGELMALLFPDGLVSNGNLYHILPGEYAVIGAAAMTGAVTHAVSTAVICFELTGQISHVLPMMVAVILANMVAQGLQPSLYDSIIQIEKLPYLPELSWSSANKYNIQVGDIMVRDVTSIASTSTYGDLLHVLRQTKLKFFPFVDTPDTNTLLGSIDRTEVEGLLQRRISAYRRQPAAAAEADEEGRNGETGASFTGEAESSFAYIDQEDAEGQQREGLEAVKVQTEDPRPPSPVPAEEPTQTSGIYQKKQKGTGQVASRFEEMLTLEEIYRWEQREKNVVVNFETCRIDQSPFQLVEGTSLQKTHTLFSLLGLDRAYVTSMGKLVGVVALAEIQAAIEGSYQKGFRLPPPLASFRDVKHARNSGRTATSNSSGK
# Format: cell-based
# condition: read-out: Apparent affinity (K1/2); −100 mV
assay_readout: pIC50
Scale explanation: pIC50 corresponds to minus log10 of a concentration expressed in moles per litre.

// recorded pIC50 for O=C(O)COc1ccc(Cl)cc1 [CPA, p-chlorophenoxy acetate] : 3.91

----------
The entries below come with measured IC50 values attached.
# tested_system: CLC-0 E166A mutant (Torpedo marmorata, UniProt P21564, C212S/E166A)
# Sequence (P21564 1-805 E166A/C212S): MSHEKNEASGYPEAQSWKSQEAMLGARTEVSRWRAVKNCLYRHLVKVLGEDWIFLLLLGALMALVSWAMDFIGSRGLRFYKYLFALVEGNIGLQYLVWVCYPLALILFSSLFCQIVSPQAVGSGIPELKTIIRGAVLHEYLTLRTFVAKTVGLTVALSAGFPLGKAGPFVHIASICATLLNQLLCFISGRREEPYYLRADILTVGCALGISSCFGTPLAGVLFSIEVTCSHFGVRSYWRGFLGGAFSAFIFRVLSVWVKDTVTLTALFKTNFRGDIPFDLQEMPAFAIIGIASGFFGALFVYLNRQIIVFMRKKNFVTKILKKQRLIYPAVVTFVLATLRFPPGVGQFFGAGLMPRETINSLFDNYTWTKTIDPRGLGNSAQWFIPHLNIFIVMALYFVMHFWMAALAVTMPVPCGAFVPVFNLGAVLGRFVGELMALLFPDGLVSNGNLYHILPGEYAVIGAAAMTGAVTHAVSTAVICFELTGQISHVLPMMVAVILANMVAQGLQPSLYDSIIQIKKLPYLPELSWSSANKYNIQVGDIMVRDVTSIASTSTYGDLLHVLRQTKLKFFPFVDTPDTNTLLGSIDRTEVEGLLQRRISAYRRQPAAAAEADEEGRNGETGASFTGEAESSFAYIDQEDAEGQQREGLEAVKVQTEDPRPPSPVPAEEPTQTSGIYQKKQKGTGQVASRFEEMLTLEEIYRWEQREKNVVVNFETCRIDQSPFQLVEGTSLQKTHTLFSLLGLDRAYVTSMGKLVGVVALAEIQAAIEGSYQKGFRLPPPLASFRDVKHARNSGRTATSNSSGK
# Format: cell-based
# condition: read-out: Apparent affinity (K1/2); −40 mV
Dear colleague, please return just the value in µM, with no unit written.

1. O=C(O)COc1ccc(Cl)cc1 [CPA, p-chlorophenoxy acetate]: 337

Now take the following compound into account.
// sample CCCCCCCC(=O)O [octanoate] , its IC50 was 64.3
